- system.under.test: T1, biotinylated CD3 epsilon:delta heterodimer protein (Amsbio AMS.CDD-H52WO) (Homo sapiens (Human), UniProt P07766 23-126; P04234 22-105)
- T1 construct: also called CD3 heterodimer
- experiment.description: BLI (Octet), CD3 on SA sensor, Fab analyte;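 also: biolayer interferometry with biotinylated CD3 epsilon:delta captured on streptavidin sensors, Fab analyte at several concentrations up to 300 nM, 100 s association then 300 s dissociation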
measured.endpoint: log10 koff (log10 of the value in s⁻¹)

binder	log10 koff
huSP34.6.4 Fab-HF (Fab, V domains shown, also called HC6+LC4) VH: EVQLVESGGGLVQPGGSLRLSCAASGFTFSTYAMNWVRQAPGKGLEWVGRIRSKYNNYATYYADSVKGRFTISRDNSKNTLYLQMNSLRAEDTAMYYCVRHGNFGNSYVSWFAVWGQGTLVTVSS VL: QAVVTQEPSLTVSPGGTVTLTCGSSTGAVTTSHYANWVQQKPGQAPRGLIGGTSKRAPWTPARFSGSLLGGKAALTLSGAQPEDEAEYYCALWYSALWVFGGGTKLTVL	-0.69
huSP34.6.5 Fab-HF (Fab, V domains shown, also called HC6+LC5) VH: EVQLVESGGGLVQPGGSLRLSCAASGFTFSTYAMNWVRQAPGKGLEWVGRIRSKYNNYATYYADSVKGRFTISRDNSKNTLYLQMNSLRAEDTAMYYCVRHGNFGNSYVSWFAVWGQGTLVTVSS VL: QAVVTQEPSLTVSPGGTVTLTCGSSTGAVTTGHYANWVQQKPGQAPRGLIGGTSNRAPWTPARFSGSLLGGKAALTLSGAQPEDEAEYYCALWYSARWVFGGGTKLTVL	-1.02
huSP34.3.5 Fab-HF (Fab, V domains shown, also called HC3+LC5) VH: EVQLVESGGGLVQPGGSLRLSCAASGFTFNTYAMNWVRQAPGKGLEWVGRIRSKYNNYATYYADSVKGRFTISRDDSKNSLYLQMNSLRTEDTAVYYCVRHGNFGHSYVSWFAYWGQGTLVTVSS VL: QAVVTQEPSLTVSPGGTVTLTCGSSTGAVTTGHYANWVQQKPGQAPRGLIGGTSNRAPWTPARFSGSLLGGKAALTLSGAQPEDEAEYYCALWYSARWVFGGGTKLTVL	-1.75
huSP34.9.4 Fab-HF (Fab, V domains shown, also called HC9+LC4) VH: EVQLVESGGGLVQPGGSLRLSCAASGFTFSDYAMNWVRQAPGKGLEWVGRTRSKYNSYATYYAASVKGRFTISRDDSKNSLYLQMNSLKTEDTAVYYCVRHGNFGNSYVSWFAVWGQGTLVTVSS VL: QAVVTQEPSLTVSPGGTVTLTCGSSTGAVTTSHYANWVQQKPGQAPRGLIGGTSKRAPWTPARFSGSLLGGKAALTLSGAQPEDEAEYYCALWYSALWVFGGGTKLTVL	-0.60
huSP34.7.5 Fab-HF (Fab, V domains shown, also called HC7+LC5) VH: EVQLVESGGGLVQPGGSLRLSCAASGFTFSDYAMNWVRQAPGKGLEWVGRTRSKYNNYATYYAASVKGRFTISRDDSKNSLYLQMNSLKTEDTAVYYCVRHGNFGNSYVSWFAVWGQGTLVTVSS VL: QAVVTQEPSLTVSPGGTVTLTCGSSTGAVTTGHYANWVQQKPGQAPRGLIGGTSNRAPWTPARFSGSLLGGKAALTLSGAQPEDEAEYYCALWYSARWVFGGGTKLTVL	-0.07
